So I've got a bunch of compounds here, and I need their inhibition values.
targetUnderTest: integrin α5β1 (Homo sapiens, UniProt P05556+P08648)
Construct: purchased R&D Systems Inc. (Minneapolis, MN, USA)
Sequence (P08648 42-995 limits assumed): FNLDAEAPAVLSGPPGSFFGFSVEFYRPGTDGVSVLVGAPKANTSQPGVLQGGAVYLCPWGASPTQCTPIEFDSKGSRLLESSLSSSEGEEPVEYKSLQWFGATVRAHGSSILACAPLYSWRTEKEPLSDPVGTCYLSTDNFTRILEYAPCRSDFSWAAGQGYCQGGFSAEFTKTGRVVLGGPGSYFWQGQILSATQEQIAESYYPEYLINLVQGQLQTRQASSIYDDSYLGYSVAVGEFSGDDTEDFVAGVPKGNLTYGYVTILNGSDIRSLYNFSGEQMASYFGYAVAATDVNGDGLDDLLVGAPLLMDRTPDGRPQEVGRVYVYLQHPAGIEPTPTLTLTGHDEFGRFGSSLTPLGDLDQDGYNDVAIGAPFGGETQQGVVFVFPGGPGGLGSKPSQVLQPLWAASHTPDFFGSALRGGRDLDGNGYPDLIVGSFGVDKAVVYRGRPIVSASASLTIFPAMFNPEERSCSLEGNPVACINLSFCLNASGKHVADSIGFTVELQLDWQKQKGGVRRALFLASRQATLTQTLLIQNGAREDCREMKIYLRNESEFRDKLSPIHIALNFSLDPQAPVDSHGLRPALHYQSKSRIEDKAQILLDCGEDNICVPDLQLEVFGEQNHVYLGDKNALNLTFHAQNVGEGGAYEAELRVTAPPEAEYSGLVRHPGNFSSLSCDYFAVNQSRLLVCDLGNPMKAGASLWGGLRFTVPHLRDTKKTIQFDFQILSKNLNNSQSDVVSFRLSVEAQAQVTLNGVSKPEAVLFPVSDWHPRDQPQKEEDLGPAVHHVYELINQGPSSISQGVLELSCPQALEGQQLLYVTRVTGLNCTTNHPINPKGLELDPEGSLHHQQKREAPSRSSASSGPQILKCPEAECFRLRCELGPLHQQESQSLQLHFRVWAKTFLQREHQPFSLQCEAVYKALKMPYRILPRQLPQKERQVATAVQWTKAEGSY
Sequence (P05556 21-728 limits assumed): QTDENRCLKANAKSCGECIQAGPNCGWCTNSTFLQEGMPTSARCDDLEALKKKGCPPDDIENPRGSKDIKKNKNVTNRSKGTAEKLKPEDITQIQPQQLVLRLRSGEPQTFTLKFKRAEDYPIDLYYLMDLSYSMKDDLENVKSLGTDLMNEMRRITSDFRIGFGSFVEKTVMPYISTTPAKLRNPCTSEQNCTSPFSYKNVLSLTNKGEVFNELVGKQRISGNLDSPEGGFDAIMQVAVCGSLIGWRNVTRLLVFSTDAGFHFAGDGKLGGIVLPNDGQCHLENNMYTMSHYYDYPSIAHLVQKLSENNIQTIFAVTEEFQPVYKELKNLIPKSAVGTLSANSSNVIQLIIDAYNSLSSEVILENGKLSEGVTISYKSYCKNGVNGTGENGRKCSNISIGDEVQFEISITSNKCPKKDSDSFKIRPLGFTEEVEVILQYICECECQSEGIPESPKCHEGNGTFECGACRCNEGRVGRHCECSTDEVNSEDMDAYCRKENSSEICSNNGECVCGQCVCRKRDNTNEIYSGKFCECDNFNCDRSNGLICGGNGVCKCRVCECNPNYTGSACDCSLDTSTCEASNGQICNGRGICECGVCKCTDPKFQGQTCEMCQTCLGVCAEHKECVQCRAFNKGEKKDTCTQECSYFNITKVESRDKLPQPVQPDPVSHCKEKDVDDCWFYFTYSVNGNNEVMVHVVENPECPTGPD
protocolDescription: biochemical
Type: binding
conditions: integrin α5β1, immobilized RGD polymer; at 22 mM (highest concentration); read-out: Maximal Inhibition Achieved (converted)

Incoming: # lookup: inhibition of CC(=O)NCC(=O)O [Acetylglycine]
Outgoing: 98.9%

Incoming: Returns the measured inhibition for the input compound. Input: O=C(O)CNCC(=O)O [Iminodiacetic acid]
Outgoing: 8%

Incoming: Quick one: inhibition of NCP(=O)(O)O [Aminomethylphosphonic acid (AMPA), aminomethylphosphonic acid] ?
Outgoing: 44.8%

Incoming: // lookup inhibition for O=C(O)CNCP(=O)(O)O [Glyphosate, N-(phosphonomethyl)glycine]
Outgoing: 85.7%

Incoming: Form field: reported inhibition of CNCC(=O)O [Sarcosine]
Outgoing: 13.4%

Incoming: I have this compound here, CC(=O)N(CC(=O)O)CP(=O)(O)O [N-acetylglyphosate] , and I need its recorded inhibition.
Outgoing: 15%

Values were extracted from paper PMC9604064.
